Readings of LC50 (concentration causing 50% net cell kill) for the listed molecules
- Test system: DU-145
- measurement_description: SRB colorimetric assay of cell growth and viability, DU-145
- Format: cell-based, human
- condition_summary: 48 hours exposure
Where a SMILES comes first, the peptide text is derived from it. Bridges are numbered along the chain shown (N, C = ends). [ ]: non-standard residue; d: D form. The star is where a group is joined. d(aIle) = CC[C@H](C)[C@@H](N)C(=O)O; d(aThr) = C[C@@H](O)[C@@H](N)C(=O)O; Hexanoyl(5-Me) = CC(C)CCCC(=O)*; Orn = NCCC[C@H](N)C(=O)O; Dhb = C/C=C(\N)C(=O)O
Reply with just the number (in µM).

Ask: Identify the measured LC50 (concentration causing 50% net cell kill) of C/C=C1\NC(=O)[C@H](Cc2ccccc2)NC(=O)[C@@H](C(C)C)NC(=O)[C@@H]([C@@H](C)CC)NC(=O)[C@H](NC(=O)[C@H](NC(=O)[C@H](CCCN)NC(=O)[C@H]2CCCN2C(=O)[C@H](NC(=O)[C@@H](NC(=O)[C@@H](NC(=O)[C@@H](CCC(=O)O)NC(=O)CCCC(C)C)[C@@H](C)O)C(C)C)C(C)C)[C@@H](C)CC)[C@@H](C)OC(=O)[C@H](C(C)C)NC1=O [Compound 39, [D-Glu^13]-KF] for DU-145.
Result: 6.63

Ask: Lab note: need LC50 (concentration causing 50% net cell kill) with DU-145 for entry C/C=C1\NC(=O)[C@H](Cc2ccccc2)NC(=O)[C@@H](C(C)C)NC(=O)[C@@H]([C@@H](C)CC)NC(=O)[C@H](NC(=O)[C@H](NC(=O)[C@H](CCCN)NC(=O)[C@H]2CCCN2C(=O)[C@H](NC(=O)[C@H](Cc2ccccc2)NC(=O)[C@@H](NC(=O)[C@H](NC(=O)CCCC(C)C)C(C)C)[C@@H](C)O)C(C)C)[C@@H](C)CC)[C@@H](C)OC(=O)[C@H](C(C)C)NC1=O [Compound 43, [Phe^11]-KF] ({Hexanoyl(5-Me)}-[dV]TF[dV][dP][Orn][d(aIle)][d(aThr)][d(aIle)][dV]F[Dhb]V; ester 8-C) , please look it up.
Result: 3.22

----------
- Tested on: HeLa
- measurement_description: SRB colorimetric assay of cell growth and viability, HeLa
- Format: cell-based, human
- condition_summary: HELA; 48 hours exposure; read-out: LC50 HELA
Where a SMILES comes first, the peptide text is derived from it. Bridges are numbered along the chain shown (N, C = ends). [ ]: non-standard residue; d: D form. The star is where a group is joined. d(aIle) = CC[C@H](C)[C@@H](N)C(=O)O; d(aThr) = C[C@@H](O)[C@@H](N)C(=O)O; hCha = N[C@@H](CCC1CCCCC1)C(=O)O; Hexanoyl(5-Me) = CC(C)CCCC(=O)*; Orn = NCCC[C@H](N)C(=O)O; Dhb = C/C=C(\N)C(=O)O
quantity_name: CC50 (nM)
Report as a plain number; the unit nM is understood.

molecule	CC50 (nM)
C/C=C1\NC(=O)[C@H](Cc2ccc(F)c(F)c2)NC(=O)[C@@H](C(C)C)NC(=O)[C@@H]([C@@H](C)CC)NC(=O)[C@H](NC(=O)[C@H](NC(=O)[C@H](CCCN)NC(=O)[C@H]2CCCN2C(=O)[C@H](NC(=O)[C@@H](NC(=O)[C@@H](NC(=O)[C@H](NC(=O)CCCC(C)C)C(C)C)[C@@H](C)O)C(C)C)C(C)C)[C@@H](C)CC)[C@@H](C)OC(=O)[C@H](C(C)C)NC1=O [Compound 84, [Phe(3,4-F2)^3]-KF]	451

Consider now this further molecule.
Ask: Using the record for C/C=C1\NC(=O)[C@H](CCC2CCCCC2)NC(=O)[C@@H](C(C)C)NC(=O)[C@@H]([C@@H](C)CC)NC(=O)[C@H](NC(=O)[C@H](NC(=O)[C@H](CCCN)NC(=O)[C@H]2CCCN2C(=O)[C@H](NC(=O)[C@@H](NC(=O)[C@@H](NC(=O)[C@H](NC(=O)CCCC(C)C)C(C)C)[C@@H](C)O)C(C)C)C(C)C)[C@@H](C)CC)[C@@H](C)OC(=O)[C@H](C(C)C)NC1=O [Compound 63] ({Hexanoyl(5-Me)}-[dV]TV[dV][dP][Orn][d(aIle)][d(aThr)][d(aIle)][dV][hCha][Dhb]V; ester 8-C) , report its CC50.
Result: 2060

----------
- Test system: SK-BR-3
- measurement_description: SRB colorimetric assay of cell growth and viability, SK-BR-3
- Type: cell-based, human
- condition_summary: 48 hours exposure
Where a SMILES comes first, the peptide text is derived from it. Bridges are numbered along the chain shown (N, C = ends). [ ]: non-standard residue; d: D form. The star is where a group is joined. d(aIle) = CC[C@H](C)[C@@H](N)C(=O)O; Hexanoyl(5-Me) = CC(C)CCCC(=O)*; Orn = NCCC[C@H](N)C(=O)O; Dhb = C/C=C(\N)C(=O)O
quantity_name: LC50 (nM)
Please give a number only; it is taken to be in nM.

Ask: Form field: reported LC50 of C/C=C1\NC(=O)[C@H](Cc2ccccc2)NC(=O)[C@@H](C(C)C)NC(=O)[C@@H]([C@@H](C)CC)NC(=O)[C@H](NC(=O)[C@H](NC(=O)[C@H](CCCN)NC(=O)[C@H]2CCCN2C(=O)[C@H](NC(=O)[C@@H](NC(=O)[C@@H](NC(=O)[C@H](NC(=O)CCCC(C)C)C(C)C)[C@@H](C)O)C(C)C)C(C)C)[C@@H](C)CC)COC(=O)[C@H](C(C)C)NC1=O [Compound 3, [D-Ser^6]-KF] ({Hexanoyl(5-Me)}-[dV]TV[dV][dP][Orn][d(aIle)][dS][d(aIle)][dV]F[Dhb]V; ester 8-C)
Result: 2450

----------
- Tested on: SK-MEL-28
- measurement_description: SRB colorimetric assay of cell growth and viability, SK-MEL-28
- Type: cell-based, human
- condition_summary: 48 hours exposure, SRB; read-out: LC50 MEL-28
Where a SMILES comes first, the peptide text is derived from it. Bridges are numbered along the chain shown (N, C = ends). [ ]: non-standard residue; d: D form. The star is where a group is joined. d(aIle) = CC[C@H](C)[C@@H](N)C(=O)O; d(aThr) = C[C@@H](O)[C@@H](N)C(=O)O; Hexanoyl(5-Me) = CC(C)CCCC(=O)*; Orn = NCCC[C@H](N)C(=O)O; Dhb = C/C=C(\N)C(=O)O
quantity_name: CC50 (µM)
Return type: number; implicit unit µM.

molecule	measurement_unit	CC50
C/C=C1\NC(=O)[C@H](Cc2ccccc2)NC(=O)[C@@H](C(C)C)NC(=O)[C@@H]([C@@H](C)CC)NC(=O)[C@H](NC(=O)[C@H](NC(=O)[C@H](CCCNC(=O)C(F)(F)F)NC(=O)[C@H]2CCCN2C(=O)[C@H](NC(=O)[C@@H](NC(=O)[C@@H](NC(=O)[C@H](NC(=O)CC[C@@H](C)CC)C(C)C)[C@@H](C)O)C(C)C)C(C)C)[C@@H](C)CC)[C@@H](C)OC(=O)[C@H](C(C)C)NC1=O [Compound 96]	µM	3.77

Shift focus to the following entry.
Ask: CC50 for C/C=C1\NC(=O)[C@H](Cc2c[nH]c3ccccc23)NC(=O)[C@@H](C(C)C)NC(=O)[C@@H]([C@@H](C)CC)NC(=O)[C@H](NC(=O)[C@H](NC(=O)[C@H](CCCN)NC(=O)[C@H]2CCCN2C(=O)[C@H](NC(=O)[C@@H](NC(=O)[C@@H](NC(=O)[C@H](NC(=O)CCCC(C)C)C(C)C)[C@@H](C)O)C(C)C)C(C)C)[C@@H](C)CC)[C@@H](C)OC(=O)[C@H](C(C)C)NC1=O [Compound 68, [Trp^3]-KF] ({Hexanoyl(5-Me)}-[dV]TV[dV][dP][Orn][d(aIle)][d(aThr)][d(aIle)][dV]W[Dhb]V; ester 8-C) ?
Result: 3.77

----------
Reported CC50 values follow for various molecules
- Tested on: LNCaP
- measurement_description: SRB colorimetric assay of cell growth and viability, LNCaP
- Format: cell-based, human
- condition_summary: 48 hours exposure, SRB; read-out: LC50 LN-caP
Your reply should be a number followed by the unit it is expressed in.

molecule	quantity_name	test_result
C/C=C1\NC(=O)[C@H](Cc2ccc(I)cc2)NC(=O)[C@@H](C(C)C)NC(=O)[C@@H]([C@@H](C)CC)NC(=O)[C@H](NC(=O)[C@H](NC(=O)[C@H](CCCN)NC(=O)[C@H]2CCCN2C(=O)[C@H](NC(=O)[C@@H](NC(=O)[C@@H](NC(=O)[C@H](NC(=O)CC[C@@H](C)CC)C(C)C)[C@@H](C)O)C(C)C)C(C)C)[C@@H](C)CC)[C@@H](C)OC(=O)[C@H](C(C)C)NC1=O [Compound 72, [Phe(4-I)^3, (4S)-MeHex^14]-KF]	CC50	2.38 µM

Ask: Which CC50 value belongs to C/C=C1\NC(=O)[C@H](Cc2ccccc2)NC(=O)[C@@H](C(C)C)NC(=O)[C@@H]([C@@H](C)CC)NC(=O)[C@H](NC(=O)[C@H](NC(=O)[C@H](CCCNC(=O)CCCC[C@@H]2SC[C@@H]3NC(=O)N[C@@H]32)NC(=O)[C@H]2CCCN2C(=O)[C@H](NC(=O)[C@@H](NC(=O)[C@@H](NC(=O)[C@H](NC(=O)CCCC(C)C)C(C)C)[C@@H](C)O)C(C)C)C(C)C)[C@@H](C)CC)[C@@H](C)OC(=O)[C@H](C(C)C)NC1=O [Compound 99, [Orn(Biot)^8]-Kahalalide F] ?
Result: 3.89 µM
